Target: T1, CD79b endogenously expressed on the cell surface (malignant B cell lines, normal B cells in PBMC, CLL … (human, UniProt P40259 29-229))
T1 construct: whole, on cells; On cells CD79b stands in the B-cell receptor complex with CD79a and surface Ig; also called cell surface CD79b; endogenous CD79b
T1 sequence (looked up): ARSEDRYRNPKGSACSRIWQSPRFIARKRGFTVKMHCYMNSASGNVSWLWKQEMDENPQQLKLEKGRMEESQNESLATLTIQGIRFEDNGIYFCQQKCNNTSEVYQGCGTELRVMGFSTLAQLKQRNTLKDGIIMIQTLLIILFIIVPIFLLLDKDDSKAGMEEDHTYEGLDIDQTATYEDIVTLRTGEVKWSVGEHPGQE
Assay: flow cytometry on PBMC of Donor 889, B cells marked with CD19-BV421; anti-human IgG1-PE; MFI (PE); table under the graph
measurement.label: pEC50
Numbers only, as −log10 of the molar value.

Guide cases for pEC50, answers given:
binder	pEC50
polatuzumab (antibody, V domains shown) VH: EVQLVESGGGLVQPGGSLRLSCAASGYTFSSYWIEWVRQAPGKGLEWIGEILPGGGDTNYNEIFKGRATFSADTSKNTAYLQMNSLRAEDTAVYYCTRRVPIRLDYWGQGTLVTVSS VL: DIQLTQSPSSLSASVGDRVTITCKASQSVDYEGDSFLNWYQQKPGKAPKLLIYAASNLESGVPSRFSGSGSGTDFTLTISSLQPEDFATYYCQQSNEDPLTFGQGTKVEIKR	9.81
ch48H10 (antibody, human IgG1, kappa, V domains shown, Rabbit/human chimeric IgG1 kappa; also called chimeric 48H10) VH: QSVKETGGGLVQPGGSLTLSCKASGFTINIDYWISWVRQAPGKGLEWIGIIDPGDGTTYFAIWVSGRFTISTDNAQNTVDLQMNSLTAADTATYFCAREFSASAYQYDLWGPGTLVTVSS VL: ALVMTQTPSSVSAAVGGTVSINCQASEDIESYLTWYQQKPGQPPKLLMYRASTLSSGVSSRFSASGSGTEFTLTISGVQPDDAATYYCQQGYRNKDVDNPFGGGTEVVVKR	9.81
ch44G2 (antibody, human IgG1, kappa, V domains shown, Rabbit/human chimeric IgG1 kappa; also called chimeric 44G2) VH: QSVRETGGGLVQPGGSLKLSCKASGFTINIDYWISWVRQAPGKGLEWIGIIDPGDGTTYFAIWVSGRFTISFDNTQNTVDLQMNSLTAADTATYFCVREFSASAYQYDLWGPGTLVTVSS VL: DLVMTQTPSSVSAAVGGTVSINCRASEDIENYLAWYQQKPGQPPKLLIYRASTLSSGVSSRFSGSGSGTEFTLTISGVQPDDAATYYCQQGYRNSNVDNPFGGGTEMVVKR	10.02

// next entry
Which pEC50 reading was recorded for the binder ch23D8 (antibody, human IgG1, kappa, V domains shown, Rabbit/human chimeric IgG1 kappa; also called chimeric 23D8) VH: QSLEESGGGLVTPGGTLTLTCTVSGLSLSSNAINWVRQAPGKGLEWIGMIYSGGRIEYASWAKGRFTISKTSTTVDLKITSPTTEDTATYFCAKGMSPSAHSSDIWGPGTLVTVSA VL: AYDMTQTPASVEVAVGGTVTIKCQASQSISDNLSWYQQKPGQPPKLLIYDASDLASGVPSRFSGSGSGTEFTLTISDLEPADAATYYCQQDWISSNVDNTFGGGTEVVVKR ? 9.82
